These measurements were taken from paper PMC3661926.

target: PrP^Sc (RML prion strain) (Mus musculus, UniProt P04925); test: biochemical; conditions: read-out: % inhibition PrP^Sc PMCA
Sequence (P04925 23-230 limits assumed): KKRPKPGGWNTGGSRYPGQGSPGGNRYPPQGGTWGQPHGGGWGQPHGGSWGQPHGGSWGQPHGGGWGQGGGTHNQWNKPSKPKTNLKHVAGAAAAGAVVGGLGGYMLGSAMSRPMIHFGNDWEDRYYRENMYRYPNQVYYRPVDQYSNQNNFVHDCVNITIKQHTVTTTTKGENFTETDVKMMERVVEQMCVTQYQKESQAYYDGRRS
We use 50% as the dividing line for inhibition at 10 µM: on or above the line is y, below is n.

>>> assigned_category("FC(F)(F)c1cccc(-c2cc(-c3ccc4c(c3)OCO4)n[nH]2)c1 [anle236b]")
"n"
>>> assigned_category("Brc1cccc(-c2cc(-c3ccc4c(c3)OCO4)n[nH]2)c1 [anle138b]")
"y"
>>> assigned_category("Fc1cccc(-c2cc(-c3ccc4c(c3)OCO4)n[nH]2)c1 [anle186b]")
"n"
>>> assigned_category("Cl.Nc1ccc(-c2cc(-c3cccc(Br)c3)[nH]n2)cc1")
"y"
>>> assigned_category("Brc1ccccc1-c1cc(-c2ccc3c(c2)OCO3)n[nH]1 [anle234b]")
"n"
>>> assigned_category("Brc1cccc(-c2cc(-c3ccc4c(c3)CCO4)[nH]n2)c1 [sery312b]")
"n"
>>> assigned_category("Brc1cccc(-c2c[nH]c(-c3ccc4c(c3)OCO4)n2)c1")
"n"
>>> assigned_category("CN(C)c1ccc(-c2cc(-c3cccc(Br)c3)n[nH]2)cc1 [anle253b]")
"y"
>>> assigned_category("Oc1ccc(-c2cc(-c3cccc(Br)c3)n[nH]2)cc1O [anle138c]")
"n"

* * *

test: in vivo; conditions: C57/BL6, mouse
MEASURED METRIC: Kp

>>> test_result("Brc1cccc(-c2cc(-c3ccc4c(c3)OCO4)n[nH]2)c1 [anle138b]")
"~3"

* * *

The compounds listed here are annotated with their melting point.
MEASURED METRIC: melting point

>>> test_result("Fc1ccc(F)c(-c2cc(-c3ccc4c(c3)OCO4)n[nH]2)c1")
"225 to 226 °C"
>>> test_result("Nc1ccc(-c2cc(-c3ccc(Cl)cc3)[nH]n2)cc1")
"213 to 214 °C"
>>> test_result("Fc1cccc(-c2nc(-c3ccc4c(c3)OCO4)no2)c1")
"161 °C"
>>> test_result("O=[N+]([O-])c1ccc(-c2cc(-c3cccc(Cl)c3)n[nH]2)cc1")
"275 to 276 °C"

* * *

Listed next: entries and their corresponding inhibition at 10 µM.
target: PrP^Sc (RML prion strain) (Mus musculus, UniProt P04925); experiment: biochemical; details: read-out: % inhibition PrP^Sc PMCA
MEASURED METRIC: inhibition at 10 µM (%)

>>> test_result("Clc1cccc(-c2cc(-c3ccc4c(c3)OCO4)n[nH]2)c1 [sery335b]")
52
>>> test_result("Ic1cccc(-c2cc(-c3ccc4c(c3)OCO4)n[nH]2)c1 [anle197b]")
16
>>> test_result("c1cc2c(cc1-c1cc(-c3ccc4c(c3)OCO4)[nH]n1)OCO2 [anle232b]")
26
>>> test_result("Brc1ccc(-c2cc(-c3ccc4c(c3)OCO4)n[nH]2)cc1 [sery378b]")
34

* * *

test: in vivo; conditions: C57/BL6, mouse, ip, 1 mg, half-life t½ in brain
MEASURED METRIC: half-life

>>> test_result("Brc1cccc(-c2cc(-c3ccc4c(c3)OCO4)n[nH]2)c1 [anle138b]")
"2.9 h"

* * *

Measured inhibition at 10 µM by item
molecular target: α-synuclein (α-syn) (Homo sapiens, UniProt P37840); construct: made in house; experiment: α-synuclein in vitro oligomer formation assay (SIFT); assay type: biochemical; settings: relative to high control, 10 μM compound, 1 % DMSO, 10 μM FeCl3; read-out: % inhibition α-syn SIFT
MEASURED METRIC: inhibition at 10 µM (%)

>>> test_result("Clc1cccc(-c2cc(-c3ccc4c(c3)OCO4)n[nH]2)c1 [sery335b]")
90
>>> test_result("Brc1cccc(-c2c[nH]c(-c3ccc4c(c3)OCO4)n2)c1")
57
>>> test_result("Oc1ccc(-c2cc(-c3cccc(Br)c3)n[nH]2)cc1O [anle138c]")
99
>>> test_result("Brc1ccc(-c2cc(-c3ccc4c(c3)OCO4)n[nH]2)cc1 [sery378b]")
74
>>> test_result("CN(C)c1ccc(-c2cc(-c3cccc(Br)c3)n[nH]2)cc1 [anle253b]")
50

* * *

target: PrP^Sc (RML prion strain) (Mus musculus); test: biochemical
MEASURED METRIC: EC50 (µM)

>>> test_result("Brc1cccc(-c2cc(-c3ccc4c(c3)OCO4)n[nH]2)c1 [anle138b]")
7.3
